# Test system: Plasmodium falciparum
# assay: Calibr Malaria Delayed Death Assay SOP
# Assay type: functional, organism-based
# Set-up: scale not given: in the data most compounds retested in dose-response had high values
# assay context: concentration 4.99e-06 (unit not given; other assays of the set use mol/L)
About 1,200 (3.2%) of roughly 38,000 compounds showed an effect of 50% or more. The median lay at about -58%. Shown is part of a subset that was picked to be rich in strong results.
Below is a list of entries, each paired with its recorded Percent Effect value.

{"columns": ["compound", "measurement target", "Percent Effect, %"],
 "data": [
  ["COC[C@@]12CCO[C@@H]1CCN(C(=O)Cc1cccc(F)c1)C2", "Plasmodium falciparum", -44.15],
  ["CC(NCC1(N(C)C)CCOCC1)c1ccc(S(C)(=O)=O)cc1 (configuration not stated)", "Plasmodium falciparum", -124.5],
  ["COCc1ncc(CN(CCN(C)C)Cc2ccc(C)s2)cn1", "Plasmodium falciparum", 1.94],
  ["COc1ccc(CN2CCN(CCn3ccnc3)CC2)cc1F", "Plasmodium falciparum", -77.09],
  ["Cc1ccc(CN(CCCO)Cc2nc3ccccc3[nH]2)s1", "Plasmodium falciparum", -85.6],
  ["C1CCC(c2nc3c(c(N4CCN5CCCC5C4)n2)CCNCC3)C1 (configuration not stated)", "Plasmodium falciparum", 77.28],
  ["COc1ncc(CN(CCN(C)C)Cc2ccc(C)s2)cn1", "Plasmodium falciparum", -3.016],
  ["C1CCC(c2nc3c(c(N4CC(N5CCOCC5)C4)n2)CCNCC3)C1", "Plasmodium falciparum", -121.5],
  ["CCNc1ncc(CN(CCN(C)C)Cc2ccc(C)s2)cn1", "Plasmodium falciparum", 37.82],
  ["CCCS(=O)(=O)N1CCOC2(CCCN(c3ccccn3)C2)C1.O=C(O)C(F)(F)F (configuration not stated)", "Plasmodium falciparum", -72.32],
  ["Cn1cc(CN2CCCN(CCCc3ccccc3)CC2)cn1", "Plasmodium falciparum", -23.65],
  ["Cn1cnnc1CNC(=O)C1CCCN(Cc2cccc(F)c2)C1 (configuration not stated)", "Plasmodium falciparum", -147.7]
]}

###

# Tested on: Plasmodium falciparum
# assay: Calibr Malaria Delayed Death Assay SOP
# Format: functional, organism-based
# Design: scale not given: in the data most compounds retested in dose-response had high values
# assay context: concentration 4.99e-06 (unit not given; other assays of the set use mol/L)
In all, about 38,000 compounds went through this assay and about 1,200 (3.2%) showed an effect of 50% or more. The median lay at about -58%. What follows is part of a selection rich in strong results, with near analogues and random picks from the rest.
reported metric: Percent Effect (%)

{"columns": ["molecule", "unit label", "recorded number"],
 "data": [
  ["Cc1[nH]ncc1C(=O)N1CCCC1c1noc(C2CC2)n1 (stereo not given)", "%", -58.86],
  ["CCc1ccc(CNC(=O)Cn2ccc3sccc3c2=O)cc1", "%", -94.67],
  ["COc1ccc(C(=O)CCC(=O)NCc2ncc(C)s2)cc1F", "%", -71.69],
  ["CCS(=O)(=O)NCCNCc1ccc(Cl)c2cccnc12", "%", 60.34],
  ["Cc1cccc(C)c1OCCCN1CCN(CC2CCCO2)CC1 (stereo not given)", "%", 11.15]
]}

###

Below is a list of entries, each paired with its recorded Percent Effect value.
# System: Plasmodium falciparum
# assay: Calibr Malaria Delayed Death Assay SOP
# Assay type: functional, organism-based
# Parameters: scale not given: in the data most compounds retested in dose-response had high values
# assay context: concentration 4.99e-06 (unit not given; other assays of the set use mol/L)
Among all 38,000 compounds or so, about 1,200 (3.2%) showed an effect of 50% or more. The median lay at about -58%. The full list was thinned out, with strong results kept by preference.
reported metric: Percent Effect

{"columns": ["molecule", "result"],
 "data": [
  ["COc1ccc(CCC(=O)N2CCCC(n3cncn3)C2)cc1 (stereo not drawn)", "-80.83%"],
  ["CCc1cnc(CN(C(C)=O)C2CCN(CCc3ccccn3)C2)o1 (stereo not drawn)", "-120.8%"],
  ["CC(C)c1nncn1CCNC(=O)c1ccc(Cl)cc1O", "-118.9%"]
]}

###

# Test system: Plasmodium falciparum
# assay: Calibr Malaria Delayed Death Assay SOP
# Format: functional, organism-based
# Set-up: scale not given: in the data most compounds retested in dose-response had high values
# assay context: concentration 4.99e-06 (unit not given; other assays of the set use mol/L)
Out of some 38,000 compounds screened, about 1,200 (3.2%) showed an effect of 50% or more. The median lay at about -58%. This excerpt belongs to a sample that is enriched for strong results.

{"columns": ["compound", "Percent Effect (%)"],
 "data": [
  ["Cc1ccc(NC(=O)Nc2cnc(N3CCN(C)CC3)nc2)cc1", 58.27],
  ["COc1ccc(NC(=O)Nc2cnc(N3CCN(C)CC3)nc2)cc1Cl", 87.5],
  ["CC(C)Cc1nc(NC(=O)c2cccnc2)n[nH]1", -46.29],
  ["CN1C(=O)C2(CCCN(C(=O)c3ccc(=O)n(C)n3)C2)c2ccccc21 (centres undefined)", -36.85],
  ["CN1CCN(C[C@@H]2OC[C@H]3CN(CCc4ccccc4)CC[C@H]32)CC1.O=C(O)C(F)(F)F.O=C(O)C(F)(F)F.O=C(O)C(F)(F)F", 64.83],
  ["CC(=O)c1c(C)nn(CC(=O)Nc2ccc(F)cc2)c1C", -45.58],
  ["CC(=O)N1CCC2(CCN(C(=O)c3ccc(F)c(C(F)(F)F)c3)CC2)C1", -64.74],
  ["O=C(C1CC=CC1)N1C[C@H]2CN(Cc3ccncc3)C(=O)[C@H]2C1.O=C(O)C(F)(F)F", -118.6],
  ["CN1CCN(C[C@@H]2OC[C@H]3CN(Cc4cccc(F)c4)CC[C@H]32)CC1.O=C(O)C(F)(F)F.O=C(O)C(F)(F)F.O=C(O)C(F)(F)F", 17.46],
  ["Cc1cc(C(=O)N(C)CCCn2cccn2)nc(N)n1", -80.13],
  ["Cc1cccc(N2CCOCC3(C2)CN(c2cncnc2)C(=O)CO3)n1 (centres undefined)", -72.37],
  ["CC(C)n1cc(N2CC(C(=O)N3CCc4ccccc4C3)CC2=O)cn1 (centres undefined)", -62.91],
  ["Cc1cccc(CN2CC[C@@H]3O[C@@H](C(=O)N4CCN(C)CC4)C[C@@H]32)c1", 7.549],
  ["O=C(O)C(F)(F)F.O=C(O)C(F)(F)F.c1cncc(CO[C@H]2CN(Cc3ccco3)[C@@H]3COC[C@H]23)c1", -20]
]}

###

# System: Plasmodium falciparum
# assay: Calibr Malaria Delayed Death Assay SOP
# Type: functional, organism-based
# Set-up: scale not given: in the data most compounds retested in dose-response had high values
# assay context: concentration 4.99e-06 (unit not given; other assays of the set use mol/L)
Out of some 38,000 compounds screened, about 1,200 (3.2%) showed an effect of 50% or more. The median lay at about -58%. The entries come from a sample that favours strong results as a whole.

{"columns": ["compound", "Percent Effect / %"],
 "data": [
  ["Cc1ccc2c(c1)N(C(=O)c1c[nH]c(C)cc1=O)CC(C)O2 (stereo unspecified)", -44.94],
  ["c1ccc(CN2CCC3(COCc4cnc(NCC5CC5)nc43)C2)cc1 (stereo unspecified)", 50.22],
  ["CNC(=O)[C@H]1C[C@@H]2CN(C(=O)NCCc3ccccc3)C[C@H]1O2", -57.69],
  ["CN1CCCC(N(C)S(=O)(=O)c2cccc3ncccc23)C1 (stereo unspecified)", 28.23],
  ["CC(NCCN1CCC(N(C)C)CC1)c1ccc(Cl)s1 (stereo unspecified)", 74.67],
  ["CC(NCc1cnc(N2CCOCC2)nc1)c1ccc(Cl)s1.Cl (stereo unspecified)", -27.68],
  ["CC(NCCN1CCC(N(C)C)CC1)c1ccc(F)cc1N(C)C (stereo unspecified)", 55.63],
  ["Cc1cccc(CNC2CCCc3c2cnn3C)c1.Cl (stereo unspecified)", -40.76],
  ["Cn1cc(CN2CC[C@H]3O[C@H](C(=O)NC4CC4)CC[C@H]32)c2ccccc21.O=C(O)C(F)(F)F", 22.79],
  ["CCC(c1ccc(F)cc1F)N1CCN(CCO)CC1 (stereo unspecified)", 33.11],
  ["COc1ccc(C2CCN(Cc3cscn3)CC2)cc1", -93.29],
  ["O=C(CN1CCCC1Cn1cncn1)Nc1ccnn1C1CCCC1 (stereo unspecified)", -46.57],
  ["c1ccc(C2CN(C3CC3)CC3(CCN(Cc4ncc[nH]4)CC3)C2)cc1 (stereo unspecified)", 35.37],
  ["CC(C)c1cc(NC(=O)c2ccc([S+]([O-])C(C)C)cc2)[nH]n1 (stereo unspecified)", -180.3],
  ["CCc1cnc(C)nc1NCCN1CCC(O)CC1", -33.54],
  ["CN(Cc1ccco1)[C@@H]1CN(Cc2ccc(F)cc2)[C@@H]2CCCO[C@H]12.O=C(O)C(F)(F)F.O=C(O)C(F)(F)F", 54.29],
  ["Cc1ccc(CN2C[C@@H]3CCCO[C@@H]3[C@H](N(C)Cc3ccco3)C2)s1.O=C(O)C(F)(F)F.O=C(O)C(F)(F)F", 73.4],
  ["CCCNCc1ncc(C)c(OC)c1C", -91.87],
  ["CNC(=O)[C@@H]1CC[C@@H]2[C@@H](CCN2Cc2cn(C)c3ccccc23)O1.O=C(O)C(F)(F)F", -13.73],
  ["O=C(NCc1ccccn1)[C@H]1COC[C@H]2CN(CC3CC3)C[C@H]21.O=C(O)C(F)(F)F.O=C(O)C(F)(F)F", -42.42],
  ["c1cc(N2CCC3(COCc4cnc(NCC5CC5)nc43)C2)ncn1 (stereo unspecified)", -14.49],
  ["CC(NCCCN1CCCC1=O)c1ccc(F)cc1N(C)C (stereo unspecified)", -66.62],
  ["CC(C)c1cc(NC(=O)c2ccncc2)[nH]n1", -141],
  ["CNc1nc(C)cc(NCc2cc(C)cc3c(C)c(C)[nH]c23)n1", 92.52],
  ["COCC1CCN(C(=O)c2cn(Cc3ccccc3F)nn2)CC1", -60.58],
  ["O=C(O)C(F)(F)F.O=c1cccnn1CC1CN(CC2CCCC2)Cc2nccn2C1 (stereo unspecified)", -25.12]
]}
